System: monoclonal antibody MV-002
Test: In vitro binding assay (ELISA), BSA-coupled peptides, parental antibody MV-002
Parameters: species or system C57/B16 mice
Settings: Table 1 (MV-002); peptide-BSA on plate, compared to original epitope
Here the recorded Binding Capacity is given for each entry.

sequence: GEIQFGAC [p4699]
Binding Capacity: 3 (strong binding :>320000)
--
sequence: GEIYFERC [p4681]
Binding Capacity: 3 (strong binding :>320000)
--
sequence: GEMWFALC [p4671]
Binding Capacity: 3 (strong binding :>320000)
--
sequence: AIPLFVMC [p4682]
Binding Capacity: 1 (weak binding :<40000)
--
sequence: SHTRLYFC [p4403]
Binding Capacity: 1 (weak binding :<40000)
--
sequence: GQIIFQSC [p4668]
Binding Capacity: 2 (medium binding :40000-320000)
--
sequence: SGQLKFPC [p4413]
Binding Capacity: 1 (weak binding :<40000)
--
sequence: GQIMFPRC [p4686]
Binding Capacity: 3 (strong binding :>320000)
--
sequence: SGEIHFNC [p4415]
Binding Capacity: 1 (weak binding :<40000)
--
sequence: CGEIYFER [p4807]
Binding Capacity: 1 (weak binding :<40000)

Exam item: # query: Binding Capacity of entry GTLIFHHC [p4695]
Marked response: 2 (medium binding :40000-320000)

Exam item: # query: Binding Capacity of entry GELQFPPC [p4672]
Marked response: 3 (strong binding :>320000)

Exam item: # query: Binding Capacity of entry GQILFPVC [p4684]
Marked response: 3 (strong binding :>320000)

Exam item: # query: Binding Capacity of entry GQIRFDHC [p4669]
Marked response: 3 (strong binding :>320000)

Exam item: # query: Binding Capacity of entry GQLKFPFC [p4690]
Marked response: 3 (strong binding :>320000)

====

Here the recorded Binding Capacity is given for each entry.
Tested on: monoclonal antibody MV-001
Assay: In vitro binding assay (ELISA), BSA-coupled peptides, parental antibody MV-001
Parameters: species or system C57/B16 mice
Settings: Table 1C; peptide-BSA on plate, compared to original epitope

Exam item: // map ADHDFRHC [p4740] to recorded Binding Capacity (system: monoclonal antibody MV-001)
Marked response: 3 (strong binding :>20000)

Exam item: // map SSSFFPRC [p4708] to recorded Binding Capacity (system: monoclonal antibody MV-001)
Marked response: 2 (medium binding :4000-20000)

Exam item: // map NELFKHFC [p4727] to recorded Binding Capacity (system: monoclonal antibody MV-001)
Marked response: 2 (medium binding :4000-20000)

Exam item: // map DEHPFRHC [p4730] to recorded Binding Capacity (system: monoclonal antibody MV-001)
Marked response: 3 (strong binding :>20000)

Exam item: // map TPFRHTC [p4384] to recorded Binding Capacity (system: monoclonal antibody MV-001)
Marked response: 2 (medium binding :4000-20000)

Exam item: // map SAFRHHC [p4387] to recorded Binding Capacity (system: monoclonal antibody MV-001)
Marked response: 2 (medium binding :4000-20000)
